testedOn: Cytochrome P450 2C19 (Homo sapiens, UniProt P33261)
Sequence (P33261 whole entry): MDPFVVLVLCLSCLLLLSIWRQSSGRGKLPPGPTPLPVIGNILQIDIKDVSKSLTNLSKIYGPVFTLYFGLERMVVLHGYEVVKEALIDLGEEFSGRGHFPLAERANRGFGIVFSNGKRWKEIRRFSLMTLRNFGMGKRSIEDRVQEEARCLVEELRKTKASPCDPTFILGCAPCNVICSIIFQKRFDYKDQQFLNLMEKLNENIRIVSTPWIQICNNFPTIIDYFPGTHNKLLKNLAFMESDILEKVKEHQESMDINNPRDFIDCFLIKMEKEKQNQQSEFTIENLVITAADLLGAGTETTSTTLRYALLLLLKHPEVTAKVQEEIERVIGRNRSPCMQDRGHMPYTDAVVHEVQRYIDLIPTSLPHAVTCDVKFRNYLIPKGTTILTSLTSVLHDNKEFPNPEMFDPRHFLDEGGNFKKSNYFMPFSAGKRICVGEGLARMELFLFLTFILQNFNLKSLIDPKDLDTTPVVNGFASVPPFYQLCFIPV
pIC50: −log10 of the molar value.

# mol, pIC50
rows = [
    ("Cc1cc(C(F)(F)F)ccc1-c1cc2cnn([C@@H](CC(C)C)c3ccc(C(=O)NCCC(=O)O)cc3)c2cc1C", "< 5.00"),
]

----------
Below, each of the compounds is paired with its reported half-life value.
procedureDetails: Half life in C57 mouse at 5 mg/kg, iv
Type: ADME, organism-based
testConditions: in vivo
measuredEndpoint: half-life (h)

# mol, measuredEndpoint, uom, measuredResult
records = [
    ("Cc1cc(C(F)(F)F)ccc1-c1cc2cnn([C@@H](CC(C)C)c3ccc(C(=O)NCCC(=O)O)cc3)c2cc1C", "half-life", "h", 7.2),
    ("Cc1cc2c(cnn2[C@@H](CC(C)C)c2ccc(C(=O)NCCC(=O)O)cc2)cc1-c1ccc(C(F)(F)F)cc1Cl", "half-life", "h", 7.8),
    ("Cc1c(-c2ccc(C(F)(F)F)cc2Cl)ccc2nn([C@@H](CC(C)C)c3ccc(C(=O)NCCC(=O)O)cc3)cc12", "half-life", "h", 2.8),
    ("Cc1cc(C(F)(F)F)ccc1-c1cc2cn([C@@H](CC(C)C)c3ccc(C(=O)NCCC(=O)O)cc3)nc2cc1C", "half-life", "h", 4.5),
]

----------
procedureDetails: Cmax in C57 mouse at 5 mg/kg, iv or 20 mg/kg, po
Assay type: ADME, organism-based
testConditions: in vivo

# mol, Cmax (µM)
data = [
    ("Cc1c(-c2ccc(C(F)(F)F)cc2Cl)ccc2nn([C@@H](CC(C)C)c3ccc(C(=O)NCCC(=O)O)cc3)cc12", 7.6),
    ("Cc1cc(C(F)(F)F)ccc1-c1cc2cnn([C@@H](CC(C)C)c3ccc(C(=O)NCCC(=O)O)cc3)c2cc1C", 18.9),
    ("Cc1cc2c(cnn2[C@@H](CC(C)C)c2ccc(C(=O)NCCC(=O)O)cc2)cc1-c1ccc(C(F)(F)F)cc1Cl", 15.6),
    ("Cc1cc(C(F)(F)F)ccc1-c1cc2cn([C@@H](CC(C)C)c3ccc(C(=O)NCCC(=O)O)cc3)nc2cc1C", 7.9),
]

----------
procedureDetails: Stability in dog liver microsomes assessed as parent compound remaining at 1 uM incubated for 10 mins
Assay type: ADME, Canis lupus familiaris, Microsome
testConditions: liver microsomes, read-out: Stability
measuredEndpoint: remaining at 10 min, 1 µM (%)

# mol, measuredResult
records = [
    ("COc1c(-c2ccc(C(F)(F)F)cc2C)ccc2c1cnn2[C@@H](CC(C)C)c1ccc(C(=O)NCCC(=O)O)cc1", 69),
    ("Cc1cc2c(cnn2[C@@H](CC(C)C)c2ccc(C(=O)NCCC(=O)O)cc2)cc1-c1ccc(C(F)(F)F)cc1Cl", 65),
    ("Cc1cc(C(F)(F)F)ccc1-c1cc2cnn([C@@H](CC(C)C)c3ccc(C(=O)NCCC(=O)O)cc3)c2cc1C", 80),
]

----------
procedureDetails: Oral bioavailability in dog at 10 mg/kg
Assay type: ADME, organism-based, Canis lupus familiaris
testConditions: in vivo

# mol, bioavailability
data = [
    ("Cc1cc(C(F)(F)F)ccc1-c1cc2cn([C@@H](CC(C)C)c3ccc(C(=O)NCCC(=O)O)cc3)nc2cc1C", "45%"),
    ("Cc1c(-c2ccc(C(F)(F)F)cc2Cl)ccc2nn([C@@H](CC(C)C)c3ccc(C(=O)NCCC(=O)O)cc3)cc12", "35.7%"),
    ("Cc1cc(C(F)(F)F)ccc1-c1cc2cnn([C@@H](CC(C)C)c3ccc(C(=O)NCCC(=O)O)cc3)c2cc1C", "39.5%"),
    ("Cc1cc2c(cnn2[C@@H](CC(C)C)c2ccc(C(=O)NCCC(=O)O)cc2)cc1-c1ccc(C(F)(F)F)cc1Cl", "57.3%"),
]

From: ChEMBL document CHEMBL4396971
